Tested on: HS-PSS
assayRemarks: drug sensitivity score (DSS, CellTiter-Glo viability, 72 h) (DSS (dimensionless)); higher = more sensitive; extreme values may be limits of the assay
Would you kindly list drug sensitivity score for each of these molecules?
Format: numeric value only, no unit, no commentary.

**Query** Requested read-out: drug sensitivity score. Entry: O=NN(CCCl)C(=O)NC1CCCCC1 [Lomustine] (max concentration tested 10000 nM)
**Result** 0

**Query** Requested read-out: drug sensitivity score. Entry: Cc1cc(OCc2nnc(SC3CCCC3)n2-c2cccnc2)ccc1-c1ccc(S(C)(=O)=O)cc1 [NMS-873] (max concentration tested 10000 nM)
**Result** 22.9

**Query** Requested read-out: drug sensitivity score. Entry: CCC1(c2ccc(N)cc2)CCC(=O)NC1=O (stereo unspecified) [Aminoglutethimide] (max concentration tested 10000 nM)
**Result** 0

**Query** Requested read-out: drug sensitivity score. Entry: CC[C@H](CO)Nc1nc(NCc2ccccc2)c2ncn(C(C)C)c2n1 [Seliciclib] (max concentration tested 10000 nM)
**Result** 2.39

**Query** Requested read-out: drug sensitivity score. Entry: CS(=O)(=O)c1ccc(C(=O)Nc2ccc(Cl)c(-c3ccccn3)c2)c(Cl)c1 [Vismodegib] (max concentration tested 10000 nM)
**Result** 0.05

**Query** Requested read-out: drug sensitivity score. Entry: CCN(CC)CCOc1ccc(/C(=C(/Cl)c2ccccc2)c2ccccc2)cc1 [Clomifene] (max concentration tested 10000 nM)
**Result** 6.39

====

Tested on: S1507-2
assayRemarks: % inhibition of CellTiter-Glo viability at highest tested concentration (72 h), relative to DMSO and benzethonium chloride controls; higher = more inhibition
measurementKind: % inhibition (%)
Answer with a number only, understood to be in %.

**Query** Requested read-out: % inhibition. Entry: CO[C@H](C(=O)[C@@H](O)[C@@H](C)O)[C@@H]1Cc2cc3cc(O[C@H]4C[C@@H](O[C@H]5C[C@@H](O)[C@H](O)[C@@H](C)O5)[C@@H](O)[C@@H](C)O4)c(C)c(O)c3c(O)c2C(=O)[C@H]1O[C@H]1C[C@@H](O[C@H]2C[C@@H](O[C@H]3C[C@](C)(O)[C@H](O)[C@@H](C)O3)[C@H](O)[C@@H](C)O2)[C@H](O)[C@@H](C)O1 [Plicamycin] (max concentration tested 10000 nM)
**Result** 87

**Query** Requested read-out: % inhibition. Entry: Oc1nc(-c2ccc(C(F)(F)F)cc2)nc2c1CSCC2 [XAV-939] (max concentration tested 10000 nM)
**Result** 33.8

**Query** Requested read-out: % inhibition. Entry: Cc1ccc(NC(=O)c2ccc(CN3CCN(C)CC3)cc2)cc1Nc1nc(-c2cccnc2)cs1 [Masitinib] (max concentration tested 10000 nM)
**Result** 96.3

====

System: YST-1
assayRemarks: % inhibition of CellTiter-Glo viability at highest tested concentration (72 h), relative to DMSO and benzethonium chloride controls; higher = more inhibition
measurementKind: % inhibition (%)
Answer with a number only, understood to be in %.

**Query** Requested read-out: % inhibition. Entry: Cn1ncc(Cl)c1-c1cc(C(=O)N[C@H](CN)Cc2ccc(F)c(F)c2)oc1Cl [Uprosertib] (max concentration tested 10000 nM)
**Result** 21.9

**Query** Requested read-out: % inhibition. Entry: CC[C@@H]1C(=O)N(C)c2cnc(Nc3ccc(C(=O)N[C@H]4CC[C@H](N5CCN(CC6CC6)CC5)CC4)cc3OC)nc2N1C(C)C [Volasertib] (max concentration tested 1000 nM)
**Result** 55.3

**Query** Requested read-out: % inhibition. Entry: CCN(CC)CCNC(=O)c1c(C)[nH]c(/C=C2\C(=O)Nc3ccc(F)cc32)c1C [Sunitinib] (max concentration tested 1000 nM)
**Result** -7.4

**Query** Requested read-out: % inhibition. Entry: O=C(c1ccc(/C=C/c2n[nH]c3ccccc23)cc1)N1CCNCC1 [KW-2449] (max concentration tested 2500 nM)
**Result** 30.9

**Query** Requested read-out: % inhibition. Entry: Nc1nc(Cl)nc2c1ncn2[C@@H]1O[C@H](CO)[C@@H](O)[C@@H]1F [Clofarabine] (max concentration tested 10000 nM)
**Result** 83.9

====

Test system: STS26T
assayRemarks: drug sensitivity score (DSS, CellTox-Green cytotoxicity, 72 h) (DSS (dimensionless)); higher = more cytotoxic; extreme values may be limits of the assay
measurementKind: drug sensitivity score
Format: numeric value only, no unit, no commentary.

**Query** Requested read-out: drug sensitivity score. Entry: Cc1cc(C(C)Nc2ccccc2)c2nc(N3CCOCC3)cc(=O)n2c1 (stereo unspecified) [TGX-221] (max concentration tested 10000 nM)
**Result** 0.376

**Query** Requested read-out: drug sensitivity score. Entry: CCc1cnn2c(NCc3ccc[n+]([O-])c3)cc(N3CCCC[C@H]3CCO)nc12 [Dinaciclib] (max concentration tested 1000 nM)
**Result** 14.8

**Query** Requested read-out: drug sensitivity score. Entry: CCCCC/C=C/C=C1/C(=O)C=C[C@@H]1C/C=C\CCCC(=O)O [15D-PGJ2] (max concentration tested 800 nM)
**Result** 0

**Query** Requested read-out: drug sensitivity score. Entry: CCCc1cc(C)[nH]c(=O)c1CNC(=O)c1cc(-c2ccnc(N3CCN(C)CC3)c2)cc2c1cnn2C(C)C [GSK343] (max concentration tested 10000 nM)
**Result** 6.48

**Query** Requested read-out: drug sensitivity score. Entry: CNCc1ccc(-c2[nH]c3cc(F)cc4c3c2CCNC4=O)cc1 [Rucaparib] (max concentration tested 10000 nM)
**Result** 0

**Query** Requested read-out: drug sensitivity score. Entry: C[C@@H](Oc1cc(-c2cnn(C3CCNCC3)c2)cnc1N)c1c(Cl)ccc(F)c1Cl [Crizotinib] (max concentration tested 1000 nM)
**Result** 0

**Query** Requested read-out: drug sensitivity score. Entry: Nc1nc(F)nc2c1ncn2[C@@H]1O[C@H](CO)[C@@H](O)[C@@H]1O [Fludarabine] (max concentration tested 10000 nM)
**Result** 0

**Query** Requested read-out: drug sensitivity score. Entry: Cc1cc(Nc2nc(N[C@@H](C)c3ncc(F)cn3)ncc2Cl)[nH]n1 [AZD1480] (max concentration tested 1000 nM)
**Result** 0

**Query** Requested read-out: drug sensitivity score. Entry: CC/C(=C(\c1ccc(O)cc1)c1ccc(OCCN(C)C)cc1)c1ccccc1 [4-hydroxytamoxifen] (max concentration tested 10000 nM)
**Result** 1.86

**Query** Requested read-out: drug sensitivity score. Entry: CCOC(=O)CCNc1cc(N2CCc3ccccc3CC2)nc(-c2ccccn2)n1 [GSK-J4] (max concentration tested 100000 nM)
**Result** 8.17

**Query** Requested read-out: drug sensitivity score. Entry: CO[C@H](C(=O)[C@@H](O)[C@@H](C)O)[C@@H]1Cc2cc3cc(O[C@H]4C[C@@H](O[C@H]5C[C@@H](O)[C@H](O)[C@@H](C)O5)[C@@H](O)[C@@H](C)O4)c(C)c(O)c3c(O)c2C(=O)[C@H]1O[C@H]1C[C@@H](O[C@H]2C[C@@H](O[C@H]3C[C@](C)(O)[C@H](O)[C@@H](C)O3)[C@H](O)[C@@H](C)O2)[C@H](O)[C@@H](C)O1 [Plicamycin] (max concentration tested 10000 nM)
**Result** 25.9

====

Tested on: S462
assayRemarks: % inhibition of CellTiter-Glo viability at highest tested concentration (72 h), relative to DMSO and benzethonium chloride controls; higher = more inhibition
Would you kindly list % inhibition for each of these molecules?
Provide the measurement as a number trailed by its unit.

**Query** Requested read-out: % inhibition. Entry: CC(C)N(CCCNC(=O)Nc1ccc(C(C)(C)C)cc1)C[C@H]1O[C@@H](n2cc(Br)c3c(N)ncnc32)[C@H](O)[C@@H]1O [SGC0946] (max concentration tested 10000 nM)
**Result** 19.2%

**Query** Requested read-out: % inhibition. Entry: CO[C@H]1C[C@@H]2CC[C@@H](C)[C@@](O)(O2)C(=O)C(=O)N2CCCC[C@H]2C(=O)O[C@H]([C@H](C)C[C@@H]2CC[C@@H](OP(C)(C)=O)[C@H](OC)C2)CC(=O)[C@H](C)/C=C(\C)[C@@H](O)[C@@H](OC)C(=O)[C@H](C)C[C@H](C)/C=C/C=C/C=C/1C [Ridaforolimus] (max concentration tested 100 nM)
**Result** 40.4%

====

Tested on: HS-PSS
assayRemarks: drug sensitivity score (DSS, CellTiter-Glo viability, 72 h) (DSS (dimensionless)); higher = more sensitive; extreme values may be limits of the assay
Would you kindly list drug sensitivity score for each of these molecules?
Format: numeric value only, no unit, no commentary.

**Query** Requested read-out: drug sensitivity score. Entry: O=c1[nH]cc(F)c(=O)[nH]1 [Fluorouracil] (max concentration tested 10000 nM)
**Result** 1.09

**Query** Requested read-out: drug sensitivity score. Entry: COc1cc(Nc2ncc(F)c(Nc3ccc4c(n3)NC(=O)C(C)(C)O4)n2)cc(OC)c1OC [Tamatinib] (max concentration tested 10000 nM)
**Result** 0

**Query** Requested read-out: drug sensitivity score. Entry: CCCCc1nc2cc(/C=C/C(=O)NO)ccc2n1CCN(CC)CC [Pracinostat] (max concentration tested 10000 nM)
**Result** 12.4

**Query** Requested read-out: drug sensitivity score. Entry: O=C(O)c1ccc(CN2CCC(CN[C@@H]3C[C@H]3c3ccccc3)CC2)cc1 (max concentration tested 10000 nM)
**Result** 0

**Query** Requested read-out: drug sensitivity score. Entry: CCN(CC)CCCC(C)Nc1ccnc2cc(Cl)ccc12 (stereo unspecified) [Chloroquine] (max concentration tested 100000 nM)
**Result** 18.7

**Query** Requested read-out: drug sensitivity score. Entry: C[C@@H](Nc1cc(F)cc(F)c1)c1cc(C(=O)N(C)C)cc2c(=O)cc(N3CCOCC3)oc12 [AZD-8186] (max concentration tested 1000 nM)
**Result** 0
